- system-under-test: T1, αiibβ3 integrin on transfected K562 cells (UniProt P08514 32-1039; P05106 27-788, limits assumed)
- T1 construct: whole, on cells
- T1 sequence (P08514 32-1039 limits assumed, chain 1 of 2): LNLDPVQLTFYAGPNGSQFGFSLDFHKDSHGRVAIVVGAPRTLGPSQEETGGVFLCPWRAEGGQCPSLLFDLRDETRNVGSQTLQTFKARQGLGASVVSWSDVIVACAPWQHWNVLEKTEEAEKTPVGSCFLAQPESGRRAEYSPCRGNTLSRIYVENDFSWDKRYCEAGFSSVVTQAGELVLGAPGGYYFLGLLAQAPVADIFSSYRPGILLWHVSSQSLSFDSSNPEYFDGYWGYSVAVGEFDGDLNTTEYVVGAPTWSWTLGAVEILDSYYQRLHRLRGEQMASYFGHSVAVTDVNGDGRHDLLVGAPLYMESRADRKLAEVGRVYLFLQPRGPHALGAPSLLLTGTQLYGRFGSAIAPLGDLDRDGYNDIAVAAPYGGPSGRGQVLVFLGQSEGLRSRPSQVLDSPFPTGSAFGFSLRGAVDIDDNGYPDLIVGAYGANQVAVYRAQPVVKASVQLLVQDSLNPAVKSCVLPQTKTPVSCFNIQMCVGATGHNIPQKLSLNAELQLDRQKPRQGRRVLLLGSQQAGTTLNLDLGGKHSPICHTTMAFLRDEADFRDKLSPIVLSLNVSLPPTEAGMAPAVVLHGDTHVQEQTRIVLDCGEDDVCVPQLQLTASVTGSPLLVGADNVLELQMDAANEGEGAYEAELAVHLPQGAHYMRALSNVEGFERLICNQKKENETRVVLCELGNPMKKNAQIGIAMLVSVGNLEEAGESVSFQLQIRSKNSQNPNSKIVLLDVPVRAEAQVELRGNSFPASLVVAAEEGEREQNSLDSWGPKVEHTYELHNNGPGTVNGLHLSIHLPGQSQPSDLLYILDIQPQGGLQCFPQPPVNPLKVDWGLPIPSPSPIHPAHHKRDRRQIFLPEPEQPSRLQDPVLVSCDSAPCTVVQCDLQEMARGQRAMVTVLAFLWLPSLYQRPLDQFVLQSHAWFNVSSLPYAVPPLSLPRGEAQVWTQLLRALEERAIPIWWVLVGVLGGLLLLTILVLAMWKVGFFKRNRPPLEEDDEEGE
- T1 sequence (P05106 27-788 limits assumed, chain 2 of 2): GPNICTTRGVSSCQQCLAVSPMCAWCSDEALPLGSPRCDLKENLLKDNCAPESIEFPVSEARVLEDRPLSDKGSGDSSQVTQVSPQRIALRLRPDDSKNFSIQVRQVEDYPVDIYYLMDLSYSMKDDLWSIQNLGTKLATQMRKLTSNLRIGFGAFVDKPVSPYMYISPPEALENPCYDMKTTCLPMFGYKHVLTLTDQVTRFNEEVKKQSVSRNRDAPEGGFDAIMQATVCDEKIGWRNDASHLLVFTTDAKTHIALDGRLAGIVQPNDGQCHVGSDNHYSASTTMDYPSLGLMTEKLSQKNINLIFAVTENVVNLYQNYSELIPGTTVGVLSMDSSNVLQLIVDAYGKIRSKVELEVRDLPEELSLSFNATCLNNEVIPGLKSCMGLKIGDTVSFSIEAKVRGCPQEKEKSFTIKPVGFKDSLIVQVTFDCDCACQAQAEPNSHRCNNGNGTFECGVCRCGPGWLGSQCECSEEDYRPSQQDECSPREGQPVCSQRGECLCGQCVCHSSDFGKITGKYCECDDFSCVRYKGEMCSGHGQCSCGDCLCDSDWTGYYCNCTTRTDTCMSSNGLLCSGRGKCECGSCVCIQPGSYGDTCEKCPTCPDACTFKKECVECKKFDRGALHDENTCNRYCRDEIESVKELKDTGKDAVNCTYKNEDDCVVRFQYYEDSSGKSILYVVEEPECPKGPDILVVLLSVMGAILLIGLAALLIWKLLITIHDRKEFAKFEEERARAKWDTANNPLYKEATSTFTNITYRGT
- experiment-description: flow cytometry on K562 cells transfected with αiibβ3
parameter-measured: binding result

Worked set:
1) scVEGFrgd-7H (designed binder, Soluble protein from P. pastoris with C-terminal hexahistidine tag, with or without N-terminal FLAG tag; also called scVEGF-7H) EVVKAMDVYQRSYCHPIETLVDIFQEYPDEIEYIFKPSCVPLMRCGGCCNDAGLECVPTEESNITMQIMRIKPHQGQHIGEMSFLQHNKCECRPKKDGSTSGSGKSSEGKGEVVKFMDVYQRSYCHPIETLVDIFQEYPDEIEYAFKPSCVPLMRCGGCCNDEGLECVPTEESNITMQIMRPGGRGDSAYHIGEMSFLQHNKCECRPKKDTR : no binding
2) scVEGFrgd-7P (designed binder, Soluble protein from P. pastoris with C-terminal hexahistidine tag, with or without N-terminal FLAG tag; also called scVEGF-7P) EVVKAMDVYQRSYCHPIETLVDIFQEYPDEIEYIFKPSCVPLMRCGGCCNDAGLECVPTEESNITMQIMRIKPHQGQHIGEMSFLQHNKCECRPKKDGSTSGSGKSSEGKGEVVKFMDVYQRSYCHPIETLVDIFQEYPDEIEYAFKPSCVPLMRCGGCCNDEGLECVPTEESNITMQIMRPASRGDSPPHIGEMSFLQHNKCECRPKKDTR : no binding
3) scVEGF-mA (designed binder, Soluble protein from P. pastoris with C-terminal hexahistidine tag, with or without N-terminal FLAG tag (tags not included in the parts); also called scVEGFmut-A) EVAKAMDVYQKSYCHPIETLVDILQEYPDEIGYIFKPSCVPLMRCGGCCNDAGLECVPTEESNITMQIMRIKPYQGQHIGEMSFLQHNKCECRPKKDGSTSGSGKSSEGKGEVVKFMDVYQRSYCHPIETLVDIFQEYPDKIEYAFKPSCVPLMRCGGCCNNEGLECVPTEESNITMQITRAKPHQGQHIGEMSFLQHNKCECRPKKD : no binding
4) scVEGFrgd-7I (designed binder, Soluble protein from P. pastoris with C-terminal hexahistidine tag, with or without N-terminal FLAG tag; also called scVEGF-7I) EVVKAMDVYQRSYCHPIETLVDIFQEYPDEIEYIFKPSCVPLMRCGGCCNDAGLECVPTEESNITMQIMRIKPHQGQHIGEMSFLQHNKCECRPKKDGSTSGSGKSSEGKGEVVKFMDVYQRSYCHPIETLVDIFQEYPDEIEYAFKPSCVPLMRCGGCCNDEGLECVPTEESNITMQIMRPSVRRGDSPASHIGEMSFLQHNKCECRPKKDTR : no binding
5) scVEGF-mM (designed binder, Soluble protein with C-terminal hexahistidine tag, with or without N-terminal FLAG tag (tags not included in the parts); also called scVEGFmut-M) EVVKAMDVYRRSYCHPVETSVDILQEYPDEIEYIFKPSCVPLMRCGGCCNDAGLECVPTEESNTTMQIMRIKPYRGQHIGEMSFLQHNKCECRPKKDGSTSGSGKSSEGKGEVVKFMDVYQRSYCHPIETLVDIFQEYPDEIEYAFKPSCVSLMRCGGCCNNEGLECVPTEESNITVQIMGAKPHQGQHIGEMSFLQHNKCECRPKKD : no binding
6) scVEGF-mJ (designed binder, Soluble protein with C-terminal hexahistidine tag, with or without N-terminal FLAG tag (tags not included in the parts); also called scVEGFmut-J) EIVKARDVYQRSYCHPIETLVDILQEYPDEIEYIFKPSCVPLMRCGGCCNDAGLECVPTEESNITMQIMRIKPYQGHHIGEMSFLQHNKCECRPKKDGSTSGSGKSSEGKGEVVKFMDVYQRSYCHPIETLVDIFQEYPDEIEYAFKPSCVPLMRCGGCCNNEGLECVPTEESNITMQIMRAKPHQGQHTGEMSFLQHNKCECRPKKD : no binding

Qu. Sample scVEGF-mE (designed binder, Soluble protein with C-terminal hexahistidine tag, with or without N-terminal FLAG tag (tags not included in the parts); also called scVEGFmut-E) EVVKAMDVYQRSYCHPIETLVDILQEYPDEIGYIFKPSCVPLMRCGGCCNGAGLECVPTEESNITMQIMRIKPHRGQHIGEMSFLQHNKCECRPKKDGSTSGSGKSSEGKGEVVRFMDVYQRSYCHPIETLVDIFQEYPNEIEYAFKPSCVPLMRCGGCCNNEGLECVPTEESNITMQIMRAKPHQGQHIGEMSFLQHNKCECRPKKD — what was its binding result?
Ans. no binding
